pIC50: −log10 of the molar value.
Please find below pIC50 data on Platelet-derived growth factor receptor alpha (Homo sapiens, UniProt P16234) compiled from the literature.
READOUT TYPE: pIC50

>>> print(df.to_string())
                                   compound                                    target  result
0  CC1NC(=O)c2c1c1c3ccccc3n(CCCN)c1c1[nH]c3ccccc3c21 (centres unmarked)  Platelet-derived growth factor receptor alpha (Homo sapiens, UniProt P16234)    6.03

[P] COc1cc(OC)c(Cl)c(-c2ccc3c(/C=C/c4ccc(N(C)C(=O)CN5CCN(C)CC5)cc4)n[nH]c3c2)c1Cl
[Q] Cc1ccc(NC(=O)c2ccc(CN3CCN(C)CC3)cc2)cc1Oc1nccc(-c2cc3ccccc3o2)n1
[R] C[C@@H]1NC(=O)c2c1c1c3ccccc3n(CCCCN)c1c1[nH]c3ccccc3c21
# rank_down: sort by pIC50, max first Write the labels out in the order the request specifies.
Q, P, R
